# credit: ChEMBL document CHEMBL1201862

study_target: UniProtKB P63073
Sequence (P63073 whole entry): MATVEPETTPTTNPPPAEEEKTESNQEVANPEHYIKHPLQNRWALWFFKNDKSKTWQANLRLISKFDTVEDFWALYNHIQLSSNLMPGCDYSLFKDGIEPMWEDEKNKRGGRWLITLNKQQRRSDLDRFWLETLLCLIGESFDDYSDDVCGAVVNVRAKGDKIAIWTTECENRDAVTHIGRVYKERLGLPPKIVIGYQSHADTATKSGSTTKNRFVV
method_description: eIF4E–eIF4G protein interaction inhibitors, dose response, biochemical, TR-FRET (AID 855);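 also: potency for disrupting eIF4E binding to eIF4GI seen as loss of FRET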
Format: functional
The source made the active and inactive calls.
Possible outcomes: true = active, false = inactive

Cc1cccc(-c2nnc(SCC3CNC(=O)O3)n2-c2ccc(Cl)cc2)c1 (stereo unspecified) : false
Oc1ccc(/C=N/N=C(c2ccccc2)c2ccccc2)c(O)c1O : false
N#Cc1ccc(-c2csc(NC3=NCCCCC3)n2)cc1 : false
O=C1NC(=S)N(Cc2ccco2)C(=O)/C1=C\c1cccs1 : true
CCc1nnc(NS(=O)(=O)c2ccc(NC(=S)NC(=O)/C=C/c3ccc(C(C)C)cc3)cc2)s1 : true
Clc1ccc(/N=c2\ssnc2Cl)cc1 : true

* * *

study_target: UniProtKB P08684
Sequence (P08684 whole entry): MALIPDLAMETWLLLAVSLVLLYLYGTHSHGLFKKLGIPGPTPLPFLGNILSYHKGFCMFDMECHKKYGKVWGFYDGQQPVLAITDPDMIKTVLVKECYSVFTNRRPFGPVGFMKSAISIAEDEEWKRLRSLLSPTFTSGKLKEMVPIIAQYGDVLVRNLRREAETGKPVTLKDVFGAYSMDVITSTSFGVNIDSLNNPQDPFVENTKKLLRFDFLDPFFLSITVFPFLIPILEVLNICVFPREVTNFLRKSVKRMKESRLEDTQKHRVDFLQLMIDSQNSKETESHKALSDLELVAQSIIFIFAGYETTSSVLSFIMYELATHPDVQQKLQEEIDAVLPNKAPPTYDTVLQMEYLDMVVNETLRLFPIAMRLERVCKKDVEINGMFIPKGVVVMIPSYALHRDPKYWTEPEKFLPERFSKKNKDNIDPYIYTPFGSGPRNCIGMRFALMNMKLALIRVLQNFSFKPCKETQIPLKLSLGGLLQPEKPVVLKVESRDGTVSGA
details: Potency
experimental_readout: AC50

Clc1ccc(C2[C@H]3CN(Cc4ccc(-c5ccccc5)cc4)[C@H](c4ccccc4)C34CC2(c2ccccc2)C4)cn1 (some centres not stated) : 15.8 µM (inconclusive)
Cc1ccc(S(=O)(=O)NC2CCCCC2)cc1 : 20 µM (inconclusive)
CC(C)=CCc1c2c(c3occ(-c4ccc(O)cc4)c(=O)c3c1O)C=CC(C)(C)O2 : 25.1 µM (inconclusive)
CCC1(c2ccc(N)cc2)CCC(=O)NC1=O (configuration not stated) [AMINOGLUTETHIMIDE] : 31.6 µM (inconclusive)
O=C(/C=C/c1ccc(Cl)cc1)c1cccs1 : 25.1 µM (inconclusive)
O=C(O)c1cc(O)c2c(c1)C(=O)c1cc(O)cc(O)c1C2=O : 15.8 µM (inconclusive)
CC(=O)OCC1OC(C#CCC2CCCCC2)C=CC1OC(C)=O (configuration not stated) : 3.16 µM (inconclusive)

* * *

study_target: RNA-binding protein pos-1 (Caenorhabditis elegans, UniProt G5EF15)
Sequence (G5EF15 whole entry): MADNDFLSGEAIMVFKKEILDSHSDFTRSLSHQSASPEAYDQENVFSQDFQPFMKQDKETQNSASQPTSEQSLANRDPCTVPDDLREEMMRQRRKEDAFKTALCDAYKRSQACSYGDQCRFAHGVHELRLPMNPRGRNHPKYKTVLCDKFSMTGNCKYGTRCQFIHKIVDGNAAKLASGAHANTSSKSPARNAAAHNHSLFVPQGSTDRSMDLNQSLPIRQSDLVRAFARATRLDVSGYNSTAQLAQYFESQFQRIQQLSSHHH
method_description: inhibitors of POS-1/mex-3 RNA binding, dose response, biochemical, fluorescence polarization (AID 1964);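 also: purified POS-1 fused to maltose binding protein made in E. coli; potency of compounds blocking POS-1 binding to fluorescent RNA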
Active and inactive are the calls of the source.
Consider the following molecules and their measured EC50 readings.
experimental_readout: EC50

CCOC(=O)c1c(NC(=O)Nc2ccc(F)cc2)sc2c1CCN(C)C2 : 27.7 µM (inconclusive)
CC(=O)N(C)c1ccc(N=NC2C(=O)N(C(N)=S)N=C2C)cc1 (configuration not stated) : > 300 µM (not active)
COc1ccccc1N1C(=O)NC(=O)/C(=C\c2c[nH]c3ccccc23)C1=O : > 300 µM (not active)
CCN=C(S)N(C)CCc1cc2c(c(OC)c1C=C1C(=O)N(C)C(=O)N(C)C1=O)OCO2 : > 300 µM (not active)
C=CC/N=c1\scc(-c2ccco2)n1/N=C/c1ccc(O)c(O)c1O : 40.6 µM (active)
O=c1oc2ccccc2cc1-c1nc(-c2cccs2)cs1 : 15.6 µM (inconclusive)
Cc1cc(NC(=O)/C(C#N)=C/c2ccc(-c3ccc(SC(F)F)cc3)o2)n(-c2ccccc2)n1 : 22.9 µM (active)

* * *

study_target: SUMO-activating enzyme (Homo sapiens)
Sequence (Q9UBE0 whole entry): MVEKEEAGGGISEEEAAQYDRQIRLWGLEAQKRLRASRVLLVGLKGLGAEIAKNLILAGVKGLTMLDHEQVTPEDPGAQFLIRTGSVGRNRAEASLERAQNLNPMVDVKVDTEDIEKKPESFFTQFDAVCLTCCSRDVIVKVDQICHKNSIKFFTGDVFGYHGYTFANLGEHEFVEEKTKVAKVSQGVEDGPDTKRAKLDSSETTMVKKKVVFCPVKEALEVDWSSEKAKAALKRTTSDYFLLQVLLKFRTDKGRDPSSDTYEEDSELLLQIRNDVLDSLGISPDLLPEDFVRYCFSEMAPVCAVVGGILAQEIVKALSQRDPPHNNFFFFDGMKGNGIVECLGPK
Sequence (Q9UBT2 whole entry): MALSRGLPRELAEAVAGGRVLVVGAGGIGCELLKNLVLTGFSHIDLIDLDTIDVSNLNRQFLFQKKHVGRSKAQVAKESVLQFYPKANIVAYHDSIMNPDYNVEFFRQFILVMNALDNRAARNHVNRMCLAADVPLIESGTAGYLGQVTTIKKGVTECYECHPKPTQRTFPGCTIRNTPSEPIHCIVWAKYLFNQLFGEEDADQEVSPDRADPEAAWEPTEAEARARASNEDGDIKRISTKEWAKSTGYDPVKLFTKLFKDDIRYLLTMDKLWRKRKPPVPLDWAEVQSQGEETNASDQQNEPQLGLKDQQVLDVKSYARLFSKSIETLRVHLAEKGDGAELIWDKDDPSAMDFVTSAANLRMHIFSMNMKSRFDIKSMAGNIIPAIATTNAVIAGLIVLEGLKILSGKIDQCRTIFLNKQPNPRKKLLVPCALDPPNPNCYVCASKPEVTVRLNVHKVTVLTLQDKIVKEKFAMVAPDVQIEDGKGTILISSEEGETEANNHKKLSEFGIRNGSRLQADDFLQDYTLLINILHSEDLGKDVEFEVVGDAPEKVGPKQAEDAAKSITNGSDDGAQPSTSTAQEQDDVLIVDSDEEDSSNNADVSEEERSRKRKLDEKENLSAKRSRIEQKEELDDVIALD
method_description: SUMOylation inhibitor hit validation, confirmation, SUMOylation inhibitor project, biochemical, AlphaScreen (AID 2018)
Format: functional
Activity calls are given as the source filed them.
experimental_readout: IC50

Sc1nnc(-c2cc(-c3ccccc3)[nH]n2)n1/N=C/c1c(Cl)cccc1Cl : 3.77 µM (active)
O=C(N/N=C\c1cn[nH]c1-c1ccc(Cl)cc1)c1cccs1 : > 100 µM (inactive)
Cc1ccc(C(=O)Nc2sc3c(c2C(=O)NCc2ccco2)CCCC3)cc1 : 29.9 µM (active)
O=C(CSc1nnc(SCc2ccc(Cl)cc2)s1)N/N=C/c1c[nH]c2ccccc12 : 1.54 µM (active)
Cc1nn(-c2ccccc2)c2sc(C(=O)NNC(=O)COc3ccccc3)cc12 : 33.6 µM (active)

* * *

method_description: HepG2 cell cytotoxicity, dose response, cytotoxicity control for Shn3 inhibitor project, CellTiter-Glo, cherry-picked (AID 624134)
Format: functional, cell-based
Active and inactive are the calls of the source.
Possible outcomes: active, inactive

Cc1cc(C)c(C(N)=O)c(SCC(=O)c2cc(C)n(-c3cc(C)on3)c2C)n1 : active
CC1(c2ccc3ccccc3c2)NC(=O)N(CC(=O)N2CCN(Cc3ccc(C#N)cc3)CC2)C1=O (stereo not given) : active
Cc1cc(C)nc(N=C(N)Nc2ccc(-c3ccccc3)cc2)n1 : inactive
O=C(CN(C(=O)c1ccccc1Cl)C1CCCCC1)Nc1ccc(Cl)c([N+](=O)[O-])c1 : active
COc1ccc(Oc2cc(NC(=O)c3nn(C)cc3[N+](=O)[O-])cc([N+](=O)[O-])c2)cc1 : active

* * *

study_target: UniProt:P29990
method_description: Dengue-2 NS5 methyltransferase inhibitors, primary screen, biochemical, confirmation dose response (AID 588689)
Type: functional
The source made the active and inactive calls.
Consider the following molecules and their measured IC50 readings.
experimental_readout: IC50

O=C(O)c1ccccc1NS(=O)(=O)c1cccc(NS(=O)(=O)c2cc(Br)ccc2Br)c1 : 28.3 µM (active)
C=CC/N=c1\scc(-c2ccco2)n1/N=C/c1ccc(O)c(O)c1O : 83.8 µM (active)
COc1ccc(S(=O)(=O)Nc2cc(SCC(=O)O)c(O)c3ccccc23)cc1 : 7.22 µM (active)
CCc1nnc(NS(=O)(=O)c2ccc(NC(=S)NC(=O)/C=C/c3ccc(C(C)C)cc3)cc2)s1 : 50 µM (active)
CCOc1cc(/C=C2\C(=O)ON=C2c2ccccc2)ccc1OC : 27.1 µM (active)
Cc1cccc(C2C3=C(O)c4ccccc4C3=Nc3nn(-c4ccccc4)c(O)c32)c1 (stereo unspecified) : 59.4 µM (active)
CCc1ccc([C@@H]2CC=C(C(=O)O)[C@H](c3ccc(Cl)cc3)N2S(=O)(=O)c2ccc(C)cc2)cc1 : 40.3 µM (active)
Oc1ccc(/C=N/N=C(c2ccccc2)c2ccccc2)c(O)c1O : 23.4 µM (active)
CC(C)C1Nc2ccc(C(=O)O)cc2C2C=CCC21 (stereo unspecified) : 38.7 µM (active)
CSC1=C(C#N)C(=O)NC(c2ccccc2O)S1 (stereo unspecified) : 45.2 µM (active)
COC(=O)CC1=NN(c2ccccc2)C(=O)/C1=C\c1ccc(OC)cc1 : 33.3 µM (active)

* * *

Consider the following compounds and their measured EC50 readings.
study_target: Luciferin 4-monooxygenase (Photinus pyralis)
Sequence (P08659 whole entry): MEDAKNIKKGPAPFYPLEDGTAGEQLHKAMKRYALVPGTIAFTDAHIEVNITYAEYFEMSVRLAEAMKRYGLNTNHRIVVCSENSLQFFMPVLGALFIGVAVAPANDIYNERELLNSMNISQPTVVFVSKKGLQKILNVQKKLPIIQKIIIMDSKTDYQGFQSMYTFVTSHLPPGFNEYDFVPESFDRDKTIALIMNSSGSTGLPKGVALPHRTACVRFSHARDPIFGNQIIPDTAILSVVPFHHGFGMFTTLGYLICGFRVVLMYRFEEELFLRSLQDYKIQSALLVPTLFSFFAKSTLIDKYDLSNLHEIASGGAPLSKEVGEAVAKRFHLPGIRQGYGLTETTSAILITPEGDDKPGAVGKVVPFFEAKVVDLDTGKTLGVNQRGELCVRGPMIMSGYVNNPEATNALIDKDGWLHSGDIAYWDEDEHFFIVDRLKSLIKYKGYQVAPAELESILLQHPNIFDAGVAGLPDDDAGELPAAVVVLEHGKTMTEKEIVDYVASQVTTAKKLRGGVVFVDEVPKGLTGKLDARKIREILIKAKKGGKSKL
method_description: firefly luciferase enzyme inhibitors, dose response, biochemical, luminescence (AID 1891)
Calls of active or inactive are those of the source.
experimental_readout: EC50

CCOC(=O)C1=C(O)/C(=C/c2cc(OC)c(OC)c(OC)c2)N=C1C : > 112 µM (not active)
CCOC(=O)N1CCN(C(=O)CNC2CCCCCCC2)CC1 : > 112 µM (not active)
Cc1cccc(C(=O)O/N=C(\N)c2ccccn2)c1 : 7.75 µM (active)
COC(=O)c1cc(S(=O)(=O)NCCc2ccc(SC)cc2)c[nH]1 : > 112 µM (not active)
O=C(NC1CCCCC1)N(C1=NCCCCC1)c1ccc(Br)cc1 : > 112 µM (not active)
O=C(NCCCN1CCN(c2cccc(Cl)c2)CC1)C1CCC(=O)N1Cc1ccccc1Cl (configuration not stated) : > 112 µM (not active)
C[C@H](NC1=NS(=O)(=O)c2ccccc21)C(=O)OCc1cc([N+](=O)[O-])cc2c1OCOC2 : > 112 µM (not active)
CCC(C)NC(=O)c1cc(-c2ccccc2O)on1 (configuration not stated) : > 112 µM (not active)
O=C(NCC1CCCO1)c1cccc(NC(=O)c2ccc(Br)cc2)c1 (configuration not stated) : > 112 µM (not active)
Cc1ccc(-n2c(N)c(C#N)c(-c3ccc(Cl)cc3)c(C#N)c2=O)cc1 : > 112 µM (not active)
CCOc1ccc2nc(NC(=O)c3ccccn3)sc2c1 : 0.407 µM (active)
CC(=O)Oc1ccc(-c2cc3ccc(OC(C)=O)cc3oc2=O)cc1 : > 112 µM (not active)

* * *

study_target: Sentrin-specific protease 7 (Homo sapiens, UniProt Q9BQF6);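 also: Luminescence-based dose-response confirmation of ultra-high-throughput screening hits, measuring inhibition of SENP7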
Sequence (Q9BQF6 whole entry): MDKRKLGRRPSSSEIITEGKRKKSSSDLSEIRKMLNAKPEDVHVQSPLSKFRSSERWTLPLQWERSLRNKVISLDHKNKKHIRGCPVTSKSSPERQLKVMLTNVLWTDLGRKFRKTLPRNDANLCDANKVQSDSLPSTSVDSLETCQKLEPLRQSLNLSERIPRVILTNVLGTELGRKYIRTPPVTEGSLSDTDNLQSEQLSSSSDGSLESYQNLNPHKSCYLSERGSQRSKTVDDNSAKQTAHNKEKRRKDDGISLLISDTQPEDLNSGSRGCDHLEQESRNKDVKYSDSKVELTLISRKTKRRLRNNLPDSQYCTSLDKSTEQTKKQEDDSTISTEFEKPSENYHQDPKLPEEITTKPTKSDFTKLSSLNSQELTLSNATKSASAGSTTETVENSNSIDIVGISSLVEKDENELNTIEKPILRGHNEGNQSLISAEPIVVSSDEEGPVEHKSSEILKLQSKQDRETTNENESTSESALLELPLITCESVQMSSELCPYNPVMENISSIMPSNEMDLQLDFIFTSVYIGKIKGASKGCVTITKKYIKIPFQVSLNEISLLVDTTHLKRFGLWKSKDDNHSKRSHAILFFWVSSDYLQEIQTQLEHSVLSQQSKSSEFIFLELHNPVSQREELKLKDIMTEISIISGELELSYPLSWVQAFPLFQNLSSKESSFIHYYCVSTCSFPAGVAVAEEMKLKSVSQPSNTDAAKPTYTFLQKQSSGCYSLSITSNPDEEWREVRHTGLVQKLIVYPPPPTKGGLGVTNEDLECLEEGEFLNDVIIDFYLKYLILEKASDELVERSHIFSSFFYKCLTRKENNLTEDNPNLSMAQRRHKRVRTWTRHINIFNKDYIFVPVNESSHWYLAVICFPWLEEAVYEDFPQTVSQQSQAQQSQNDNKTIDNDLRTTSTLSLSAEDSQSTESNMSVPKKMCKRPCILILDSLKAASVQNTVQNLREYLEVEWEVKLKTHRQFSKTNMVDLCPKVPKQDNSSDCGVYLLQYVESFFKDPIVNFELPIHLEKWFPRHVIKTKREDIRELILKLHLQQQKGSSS
Assay type: functional
Calls of active or inactive are those of the source.
Consider the following compounds and their measured IC50 readings.
experimental_readout: IC50

COc1cc(Cl)c(NC2=CC(=O)C(=O)c3ccccc32)c(OC)c1 : 15.6 µM (active)
COc1ccccc1CNC(=O)COc1ccccc1C(=O)c1cnn(-c2ccccc2)c1 : 11.4 µM (active)
Clc1ccc(-c2nnc(NC3=NCCCCC3)o2)cc1 : 15.4 µM (active)
O=C(/C=C/c1ccco1)Nc1ccc(Oc2ccccc2)cc1 : 3.82 µM (active)
COc1ccc(S(=O)(=O)Nc2cc(SCC(=O)O)c(O)c3ccccc23)cc1 : 19.9 µM (active)
O=C(COC(=O)c1ccc([N+](=O)[O-])s1)Nc1ccccc1 : 6.5 µM (active)
